Molecular target: IRAK4 (Homo sapiens)
Construct: endogenous in cells; host or cells: OCI-LY10
Sequence (Q9NWZ3 1-460): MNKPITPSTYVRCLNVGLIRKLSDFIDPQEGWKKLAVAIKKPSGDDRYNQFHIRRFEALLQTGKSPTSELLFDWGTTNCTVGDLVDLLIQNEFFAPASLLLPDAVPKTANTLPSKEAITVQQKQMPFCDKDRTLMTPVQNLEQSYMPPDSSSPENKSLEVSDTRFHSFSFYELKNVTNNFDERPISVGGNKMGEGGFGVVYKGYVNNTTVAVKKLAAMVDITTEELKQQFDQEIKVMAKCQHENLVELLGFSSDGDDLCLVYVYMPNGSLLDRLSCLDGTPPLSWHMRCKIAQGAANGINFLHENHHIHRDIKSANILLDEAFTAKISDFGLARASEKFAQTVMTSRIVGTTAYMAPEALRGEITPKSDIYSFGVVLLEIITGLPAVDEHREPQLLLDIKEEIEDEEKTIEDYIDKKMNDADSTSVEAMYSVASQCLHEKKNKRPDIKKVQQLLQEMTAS
Experiment: IRAK4 MSD degradation in OCI-LY10
Type: cell-based
Details: OCI-LY10 cells, 24 hrs, Meso Scale Discovery
measureName: DC50

For orientation, consider the following solved cases.
Fill blank: measured DC50 of the compound Cc1ncsc1-c1ccc(CNC(=O)[C@@H]2C[C@@H](O)CN2C(=O)[C@@H](NC(=O)COCCOCCN2CCN(C(=O)c3ccc(Nc4nc(-c5cccc(NC(=O)c6ccc(C(C)(C)C)cc6)c5C)cn(C)c4=O)cc3)CC2)C(C)(C)C)c(OCCOCCN(C)C[C@H]2CC[C@H](n3cc4cc(NC(=O)c5cccc(C(F)(F)F)n5)c(C(C)(C)O)cc4n3)CC2)c1 [Compound I-18] is ____.
1000 to 10000 nM

Fill blank: measured DC50 of the compound Cn1c(=O)n(C2CCC(=O)NC2=O)c2cccc(CCCCN(CCNC(=O)[C@H]3CC[C@H](n4cc5cc(NC(=O)c6cccc(C(F)(F)F)n6)c(C(C)(C)O)cc5n4)CC3)CC(=O)N3CC(N4CCC(c5ccc(Nc6nc(N7CCCCC7)cnc6C(N)=O)cc5)CC4)C3)c21 (stereo partly drawn) [Compound I-14] is ____.
< 1000 nM

Next:
Fill blank: measured DC50 of the compound CC(C)(O)c1cc2nn([C@H]3CC[C@H](CN4CC5(CC(C(CNc6cccc7c6C(=O)N(C6CCC(=O)NC6=O)C7=O)CN6CCC(c7ccc(Nc8nc(N9CCCCC9)cnc8C(N)=O)cc7)CC6)C5)C4)CC3)cc2cc1NC(=O)c1cccc(C(F)(F)F)n1 (stereo partly drawn) [Compound I-8] is ____.
< 1000 nM
